procedure summary: Longer term cytotoxicity, 9 days, MTS, HeLa
details: human
measure: CC50 at 9 days (µM)
Numbers only here, please. The scale is µM.

Answer with the recorded CC50 at 9 days of CO[P@](=O)(c1cc(C)cc(/C=C/C#N)c1)c1c(C(N)=O)[nH]c2ccc(Cl)c(F)c12 only.
27.9

----------
procedure summary: Cellular cytotoxicity, 4 days, MTS, U937
Assay type: cell-based
details: human, Table 21, read-out: Average CC50 Values ± Standard Deviation, U937
measure: CC50 at 4 days (µM)
Numbers only here, please. The scale is µM.

Answer with the recorded CC50 at 4 days of CO[P@](=O)(c1cc(C)cc(/C=C/C#N)c1)c1c(C(N)=O)[nH]c2ccc(Cl)c(F)c12 only.
26.5

----------
// reported pIC50 per item
tested target: site-directed mutant HIV-1 RT enzymes
procedure summary: HIV-1 RT enzyme assay, whole panel (ranges)
details: Table 3; range over W.T. and 7 mutant enzymes
pIC50: −log10 of the molar value.

Answer with the recorded pIC50 of CO[P@](=O)(c1cc(C)cc(/C=C/C#N)c1)c1c(C(N)=O)[nH]c2ccc(Cl)c(F)c12 [Compound I] only.
5.33 to 6.80

New cases:
Answer with the recorded pIC50 of CO[P@](=O)(c1cc(C)cc(/C=C/C#N)c1)c1c(C(N)=O)[nH]c2ccc(Cl)cc12 [Compound III] only.
5.52 to 6.89

Answer with the recorded pIC50 of O=C1Nc2ccc(Cl)cc2C(C#CC2CC2)(C(F)(F)F)O1 (stereo not drawn) [EFV, reference compound] only.
≤ 7.70

----------
// reported kinact per item
tested target: UniProt:P08684
Sequence (P08684 whole entry): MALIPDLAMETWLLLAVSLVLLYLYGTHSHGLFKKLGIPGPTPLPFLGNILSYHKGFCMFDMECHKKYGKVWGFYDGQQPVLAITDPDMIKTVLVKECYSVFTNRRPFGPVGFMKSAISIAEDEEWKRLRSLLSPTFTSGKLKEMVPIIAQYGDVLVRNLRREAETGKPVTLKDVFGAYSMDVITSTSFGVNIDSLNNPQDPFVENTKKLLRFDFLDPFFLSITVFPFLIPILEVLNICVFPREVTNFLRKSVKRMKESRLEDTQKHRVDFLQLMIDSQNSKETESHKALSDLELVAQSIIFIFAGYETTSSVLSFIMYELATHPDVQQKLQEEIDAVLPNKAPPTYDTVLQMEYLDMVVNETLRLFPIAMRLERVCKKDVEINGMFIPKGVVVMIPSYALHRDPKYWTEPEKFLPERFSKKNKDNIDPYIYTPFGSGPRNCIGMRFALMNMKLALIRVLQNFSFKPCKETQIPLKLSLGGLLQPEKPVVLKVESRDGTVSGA
procedure summary: Human liver microsomal CYP450 inhibition, CYP3A4
details: human, human liver microsomes, probe testosterone
Numbers only here, please. The scale is s⁻¹.

Answer with the recorded kinact of CO[P@](=O)(c1cc(C)cc(/C=C/C#N)c1)c1c(C(N)=O)[nH]c2ccc(Cl)cc12 [Compound III] only.
0.000833

Here is another compound to look at.
Answer with the recorded kinact of CO[P@](=O)(c1cc(C)cc(/C=C/C#N)c1)c1c(C(N)=O)[nH]c2ccc(Cl)c(F)c12 [Compound I] only.
0.00055

----------
procedure summary: in vitro
// reported CC50 at 3 days per item
Numbers only here, please. The scale is µM.

Answer with the recorded CC50 at 3 days of CO[P@](=O)(c1cc(C)cc(/C=C/C#N)c1)c1c(C(N)=O)[nH]c2ccc(Cl)c(F)c12 only.
52.6

New cases:
Answer with the recorded CC50 at 3 days of O=C1Nc2ccc(Cl)cc2C(C#CC2CC2)(C(F)(F)F)O1 (centres unmarked) [EFV, reference compound] only.
70.9

----------
procedure summary: Longer term cytotoxicity, 12 days, MTS, HuH7
details: human, HuH7 liver cells
measure: CC50 at 12 days (µM)
Numbers only here, please. The scale is µM.

Answer with the recorded CC50 at 12 days of O=C1Nc2ccc(Cl)cc2C(C#CC2CC2)(C(F)(F)F)O1 (centres unmarked) [EFV, reference compound] only.
75.7

Answer with the recorded CC50 at 12 days of CO[P@](=O)(c1cc(C)cc(/C=C/C#N)c1)c1c(C(N)=O)[nH]c2ccc(Cl)cc12 [Compound III] only.
31.5

----------
procedure summary: In vivo pharmacokinetics, monkeys
Design: species or system monkey
details: female, monkey, in vivo, po, 5 mg/kg, 5 mg/kg PO-Fed, 3F, median
measure: Tmax

Answer with the recorded Tmax of CO[P@](=O)(c1cc(C)cc(/C=C/C#N)c1)c1c(C(N)=O)[nH]c2ccc(Cl)c(F)c12 [Compound I] only.
4 h

Where do these numbers come from? They come from patent US8486991B2.
